Biological target: CDK1/cyclin B (Homo sapiens)
Sequence (P06493 whole entry, species assumed): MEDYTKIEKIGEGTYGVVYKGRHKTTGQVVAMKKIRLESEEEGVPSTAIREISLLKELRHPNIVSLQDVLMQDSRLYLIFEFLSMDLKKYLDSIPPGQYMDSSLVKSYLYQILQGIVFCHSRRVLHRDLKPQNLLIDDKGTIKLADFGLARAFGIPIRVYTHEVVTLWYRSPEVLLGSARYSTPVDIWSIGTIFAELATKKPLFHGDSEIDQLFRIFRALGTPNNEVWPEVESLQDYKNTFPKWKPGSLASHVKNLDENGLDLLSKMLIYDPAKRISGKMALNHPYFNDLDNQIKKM
Sequence (P14635 whole entry partner, species assumed): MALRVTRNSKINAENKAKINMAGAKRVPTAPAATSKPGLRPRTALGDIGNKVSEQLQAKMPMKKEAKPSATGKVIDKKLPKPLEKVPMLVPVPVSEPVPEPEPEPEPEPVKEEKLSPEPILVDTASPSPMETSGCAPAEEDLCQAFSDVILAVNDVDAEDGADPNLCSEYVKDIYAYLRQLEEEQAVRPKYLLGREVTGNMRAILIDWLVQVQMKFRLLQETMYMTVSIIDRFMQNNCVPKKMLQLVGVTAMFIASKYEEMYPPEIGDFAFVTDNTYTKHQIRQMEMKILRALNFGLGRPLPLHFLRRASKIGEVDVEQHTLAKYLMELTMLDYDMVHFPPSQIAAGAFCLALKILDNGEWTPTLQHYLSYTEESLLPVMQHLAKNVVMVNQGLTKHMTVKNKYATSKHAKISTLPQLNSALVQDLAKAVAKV
Assay: CDK1/cyclin B enzymatic activity assay (IMAP-FP)
Format: biochemical
Conditions: 0.25 nM CDK1/cyclin B, 100 nM Tamra Histone-H1 peptide, 20 μM ATP, 120 min

structure_smiles_string	IC50
[2H]C([2H])([2H])NC(=O)c1cc2cnc(Nc3ccc(N4CCNCC4)cn3)nc2n1C1CCCC1	> 15 µM

* * *

Molecular target: CDK4/cyclin D1 (Homo sapiens)
Construct: His6 (N)
Sequence (P11802 whole entry): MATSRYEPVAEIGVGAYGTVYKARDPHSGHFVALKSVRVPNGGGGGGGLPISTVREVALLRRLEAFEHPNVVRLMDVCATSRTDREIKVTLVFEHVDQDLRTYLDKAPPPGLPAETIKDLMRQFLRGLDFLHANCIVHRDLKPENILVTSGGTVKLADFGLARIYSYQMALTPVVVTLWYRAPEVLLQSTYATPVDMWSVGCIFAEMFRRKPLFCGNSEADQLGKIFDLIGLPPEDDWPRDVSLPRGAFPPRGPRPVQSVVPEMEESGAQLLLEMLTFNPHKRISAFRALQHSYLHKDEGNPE
Sequence (P24385 whole entry partner): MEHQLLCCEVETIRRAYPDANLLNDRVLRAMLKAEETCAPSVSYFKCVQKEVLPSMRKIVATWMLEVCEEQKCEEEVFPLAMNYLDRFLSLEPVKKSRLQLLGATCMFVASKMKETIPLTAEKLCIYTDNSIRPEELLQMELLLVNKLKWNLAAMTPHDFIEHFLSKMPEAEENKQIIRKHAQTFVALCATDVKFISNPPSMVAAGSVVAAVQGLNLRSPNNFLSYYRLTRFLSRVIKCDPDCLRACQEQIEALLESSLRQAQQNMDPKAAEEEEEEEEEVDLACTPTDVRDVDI
Experiment: CDK4/cyclin D1 enzymatic activity assay (Lance TR-FRET)
Settings: 0.3 nM CDK4/cyclin D1, 175 nM pRb152, 3 μM ATP, 60 min
pIC50: −log10 of the molar value.

compound	assayed_system	pIC50
[2H]C([2H])([2H])NC(=O)c1cc2cnc(Nc3ccc(N4CCNCC4)cn3)nc2n1C1CCCC1 [Example 2]	CDK4/cyclin D1 (Homo sapiens)	6.88

Reference source for all entries: patent US20130203765A1
